These measurements were taken from the supplement of paper PMC11061612.

# Tested on: ESO51 (Esophageal Adenocarcinoma);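 also: after 72 h of two-drug dosing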
# ASSAY_METHOD_TEXT: Bliss excess, mean over the matrix (fraction); higher = more synergy
READOUT_KIND: Bliss excess
Answer using only a numeral; do not append any unit.

Use the examples below as a reference point.
COMPOUND	TARGET_UNDER_TEST	READOUT_KIND	EXPERIMENTAL_RESULT
COc1cccc(OCCCN)c1-c1cc(Nc2cnc(C#N)cn2)n[nH]1 [Prexasertib] + CCc1c2c(nc3ccc(O)cc13)-c1cc3c(c(=O)n1C2)COC(=O)[C@]3(O)CC [SN-38] (first compound max 1 µM, 7x7, partner max 0.3 µM)	ESO51 (Esophageal Adenocarcinoma)	Bliss excess	-0.0376
Cc1cc2ncnn2cc1Nc1ncc2c(n1)n(C1CCOCC1)c(=O)n2C [AZD7648] + CN(C)CCCOc1ccc(-c2ccc3ncc4c(c3c2)n(C2CCOCC2)c(=O)n4C)cn1 [AZD0156] (first compound max 10 µM, 7x7, partner max 1 µM)	ESO51 (Esophageal Adenocarcinoma)	Bliss excess	-0.0151

Let us move to another entry and its Bliss excess.
# query: Bliss excess of entry CCc1c2c(nc3ccc(O)cc13)-c1cc3c(c(=O)n1C2)COC(=O)[C@]3(O)CC [SN-38] + O=C(c1cc(Cc2n[nH]c(=O)c3ccccc23)ccc1F)N1CCN(C(=O)C2CC2)CC1 [Olaparib] (first compound max 0.3 µM, 7x7, partner max 10 µM)
-0.0199
